Tested on: MDA-MB-231 breast
experiment-description: NCI tumour cell line growth inhibition, 48 h
readout-type: TGI (µM)
Numbers only; they are read as µM.

Kindly note the recorded TGI for CCCCCCCCCCCCCCCCCC(=O)OCC(COC(=O)CCCN)OC(=O)CCCN (centres undefined) , which is 28.2

Value of TGI reported for the molecule "CN1C(=O)N[C@H]2[C@@H]3NC(=O)c4ccc(Br)n4[C@@H]3C[C@]21O" is 2.69

Sure, the documented TGI for "O=C1C=CC(=O)c2cc(Sc3ccccc3)c(=O)ccc21" is 35.4

# TGI of Cc1cc(N2CCSCC2)nc(NC2CCCC(Nc3ccnc4cc(Cl)ccc34)C2)n1 (centres undefined) = 3.89

// field: TGI; key: "CCOC(=O)CNc1nc(=O)c2c(=O)oc(Cl)cc2o1" ; value = 59.1

Data point: "COc1ccc(C(=O)c2cc3c(N)c(C(=O)Nc4ccc(C)cc4)sc3nc2C)cc1" ; TGI = 13.2

// "Nc1nc(N)c2cc(NCc3ccc(Cl)c(Cl)c3)ccc2n1" : TGI value = 2.58

The recorded TGI for "C=C1C(=O)O[C@@H]2C[C@]3(C)CC[C@]4(C)[C@H](CC[C@@H]5[C@@]6(C)CCC(=O)C(C)(C)[C@@H]6CC[C@]54C)[C@H]3[C@H]12" is 47.1

Recorded result, Cc1ccc2nc(-c3ccc(N4C(=O)C(Cl)C4c4ccc(Cl)cc4)cc3)sc2c1 (centres undefined) , TGI: 33

# TGI of "C=C1C(=O)O[C@@H]2C=C(C)C3=CC(=O)[C@](C)(C[C@H](OC(=O)/C(C)=C\C)[C@@H]12)O3" = 2.24

Measured TGI, Nc1nc2c(c(=O)[nH]1)C(c1ccc(Cl)cc1)C=C(c1ccccc1)N2 (centres undefined) : 43.6

molecule COc1cccc(C2c3cc4c(cc3OC(N3CCCC3)C2C)OCO4)c1O (centres undefined) , TGI observed: 45.8

So, "CCCCCCCCCCCCOCCCOP(=O)([O-])OCC[N+](C)(C)C" ? Its TGI was 40.1

// TGI value for Cc1ccc(C)c(C2NC(=O)c3ccccc3N2)c1 (centres undefined) : 72.7

Just so you know, measured TGI for COC(=O)N1CC2C3C4CC(C(c5ccccc5)=C4c4ccccc4)C3C21 (centres undefined) came out at 22.3

Form: molecule = "CC1=Nc2sc3c(c2C2=NCCN12)CCCC3" ; TGI = 71.2

Record "COc1ccc2nc3cc([N+](=O)[O-])ccc3c(NCCCN(C)C)c2c1" , field TGI: 3.45

The measured TGI associated with CCCC(CCC)C(=O)OCC1(CO)C/C(=C\c2ccc(F)cc2)C(=O)O1 (centres undefined) reads 23.9

Input "COc1cc(CNc2ccccc2C(=O)N2CCN(C(=O)c3cc(-c4cc(OC)c(OC)c(OC)c4)n4nc(-c5ccccc5)cc4n3)CC2)cc(OC)c1OC" . Output TGI: 67.8

###

Please provide measured TGI for the entries that follow.
Tested on: SF-268 CNS
experiment-description: NCI tumour cell line growth inhibition, 48 h

TGI for "CN(C)CCCn1nc(N)c2nc3cc(Cl)ccc3nc21" is > 100 µM

TGI reading for O=C1CCCCCCCCCCC1CN1CCCCC1 (stereo not given) : > 100 µM

Value of TGI reported for the compound CCCCCCCCCCC1OC([C@@H](O)CC[C@H](O)C2CC[C@@H](CCCCCCCC(O)CC3=CC(C)OC3=O)O2)CCC1O (stereo not given in full) is > 25 µM

Form: compound = "COc1cc(CNc2ccccc2C(=O)N2CCN(C(=O)c3cc(-c4cc(OC)c(OC)c(OC)c4)n4nc(-c5ccccc5)cc4n3)CC2)cc(OC)c1OC" ; TGI = > 100 µM

# TGI of "CCNC(=O)c1c(O)c2ccccc2[nH]c1=O" = > 100 µM

###

System: HS 578T breast
experiment-description: NCI tumour cell line growth inhibition, 48 h
Binary classification by TGI, with 5 µM as an inclusive lower bound for Met; all other cases are Not met.

Say whether Nc1ccn(C2OC(COC(=O)C34CC5CC(CC(C5)C3)C4)C(O)C2O)c(=O)n1 (configuration not stated) shows TGI of 5 µM or more.
Met

Reported TGI at or above 5 µM? "COc1ccc(OC)c(NS(=O)(=O)c2ccc3nc(C)n(NS(=O)(=O)c4cc(OC)ccc4OC)c(=O)c3c2)c1"
Met

Does TGI meet or surpass 5 µM for CCOP(=O)(OCC)C(N)c1ccc(Cl)cc1 (configuration not stated) ?
Met

Given the entry CCOP(=O)(OCC)C(C#N)Cc1ccco1 (configuration not stated) , answer whether its TGI meets or surpasses 5 µM.
Met

Quick check, TGI >= 5 µM? "CC(C)=CCC/C(C)=C/CC/C(C)=C/CC/C(=C/CC/C(C)=C\CC/C(C)=C/CC/C(C)=C/CC/C(C)=C/Cc1cc(O)ccc1O)CO"
Met

Given the entry Cc1cc(N2CCSCC2)nc(NC2CCCC(Nc3ccnc4cc(Cl)ccc34)C2)n1 (configuration not stated) , answer whether its TGI meets or surpasses 5 µM.
Not met

Does "CC[C@H]1C=CCC[C@@]2(C[C@@H]3CC[C@H]4[C@@H](C(=O)OCCCCCCCCCCCCCCCC(=O)N(CCCN)C[C@@H](O)CCN)[C@@]5(CCC[C@@H](C)O5)NC(=[N+]34)N2)O1" have a reported TGI of at least 5 µM?
Not met

Kindly determine if TGI recorded for "Cc1nc(N2CCC3(CC2)CO[C@@H](C)[C@H]3N)c(CO)nc1Sc1ccnc(N)c1Cl" is above or exactly 5 µM.
Met

Please indicate if the recorded TGI for "COc1ccc2cc(CN3CCC(C4CCNCC4)CC3)ccc2c1" meets or exceeds 5 µM.
Met

Say whether "COc1ccc(/C=N\Nc2ccc([N+](=O)[O-])cn2)cc1OC" shows TGI of 5 µM or more.
Met

Hi team, for "S=C(c1c[nH]c2ccccc12)N1CCN(Cc2ccccc2)CC1" , is the recorded TGI at or above 5 µM?
Met

Given "COC(=O)[C@H](Cc1c[nH]c2ccccc12)NC(=O)c1ccc(CNC(=O)/C=C/c2cccc(Oc3ccccc3)c2)cc1" , state whether its TGI is at least 5 µM.
Met

###

System: M14 melanoma
experiment-description: NCI tumour cell line growth inhibition, 48 h; in the data active means GI50 below about 0.43 µM; inactive means the rest
Can you answer with just one of these options? 1 = active, 0 = inactive

# fetch the recorded call for "COC(=O)c1cc(O)c2c(c1C(=O)OC)C[C@H]1[C@@H]3CC=C4C[C@@H](O)CC[C@]4(C)[C@H]3CC[C@]21C" here
0

How did this test come out for CCC(CNc1cc(OC)cc2cccnc12)NC1CCCCC1 (centres undefined) ?
0

Name the outcome recorded for Cc1cc(CC(C)CC(C)(C)C)n(O)c(=O)c1 (centres undefined) (tested in a mixture with another compound) in the assay.
1

Entry "COc1ccc(OC)c2c1[nH]c(=O)c1c3ncccc3cn21" : call = ?
0

I would be grateful if you could indicate the recorded call for "CCn1c(-c2cc3ccccc3cc2O)nn(C(=O)c2c(Cl)cccc2Cl)c1=S" .
0

Record request — test call for COc1nc(N)nc2c1ncn2C1OC(CO)C(O)C1O (centres undefined)
0

Record lookup: outcome of this test for CC(C)(C)[Si](C)(C)OC1[C@@H](O[Si](C)(C)C(C)(C)C)[C@@H](CNC(=O)NC(=O)CCl)O[C@H]1n1cnc2c(NC(=O)Nc3ccccc3)ncnc21 (some centres undefined) ?
0

Which outcome was assigned to "CC(C)(C)CC(C)(C)NCc1cc(C(C)(C)C)cc(CNC(C)(C)CC(C)(C)C)c1O" in this test?
0

What did the test return for "COc1ccc(/C=N\Nc2ccc([N+](=O)[O-])cn2)cc1OC" ?
0

Tell me the assay call for "Cn1c2ccc(Br)cc2c2c3c(c4c5ccccc5[nH]c4c21)C(=O)N(O)C3=O" please.
1

Hi team, can someone confirm the assay call for "COc1ccc(C(=O)c2cc3c(N)c(C(=O)Nc4ccc(C)cc4)sc3nc2C)cc1" ?
0

Please state the recorded outcome for this compound: "Cc1nc(N2CCC3(CC2)CO[C@@H](C)[C@H]3N)c(CO)nc1Sc1ccnc(N)c1Cl"
0

Please state the recorded outcome for this compound: CCN(CC)CCCC(C)N=C(C1=C(C(=NC(C)CCCN(CC)CC)c2cccc(OC)c2)C(=O)NC1=O)c1cccc(OC)c1 (centres undefined)
0

Just curious, what result did CCCC(CCC)C(=O)OCC1(CO)C/C(=C\c2ccc(F)cc2)C(=O)O1 (centres undefined) get here?
0

###

Test system: MCF7 breast
experiment-description: NCI tumour cell line growth inhibition, 48 h; in the data active = GI50 below about 0.43 µM; inactive = the rest
Select the correct class. Options are Yes (active), No (inactive) and nothing else.

Please indicate how the test categorized "COc1cccc(/C=C/C(=O)c2ccc(Cl)cc2Cl)c1" .
No

For "Nc1nc(N)c2cc(NCc3ccc(Cl)c(Cl)c3)ccc2n1" , what call appears in the results of this test?
No

Which outcome was entered for the compound CCC(CNc1cc(OC)cc2cccnc12)NC1CCCCC1 (centres undefined) in this test?
No

Record lookup: outcome of this test for "Nc1nc(Cl)c(N=Nc2ccc(Cl)cc2)c(NCC2(CO)CCC2)n1" ?
No

Which outcome was entered for the compound "CN1C(=O)N[C@H]2[C@@H]3NC(=O)c4ccc(Br)n4[C@@H]3C[C@]21O" in this test?
Yes

Hi team, can someone confirm the assay call for "COc1ccc2nc3cc([N+](=O)[O-])ccc3c(NCCCN(C)C)c2c1" ?
Yes

Which result was noted for this compound in the test: "CCn1c(-c2cc3ccccc3cc2O)nn(C(=O)c2c(Cl)cccc2Cl)c1=S"
No

Which outcome was entered for the compound CCN(CC)CCCC(C)N=C(C1=C(C(=NC(C)CCCN(CC)CC)c2cccc(OC)c2)C(=O)NC1=O)c1cccc(OC)c1 (centres undefined) in this test?
No

Recorded test outcome, item "COC(=O)c1cc(O)c2c(c1C(=O)OC)C[C@H]1[C@@H]3CC=C4C[C@@H](O)CC[C@]4(C)[C@H]3CC[C@]21C"
No

# lookup: test call for "COc1ccc2c(c1)CC[C@H](O)/C2=C/c1cc(OC)c(OC)c(OC)c1"
Yes

Outcome logged for "NC(=O)c1cccc(Nc2nccc(Nc3cccc4[nH]ncc34)n2)c1" in this assay:
No

Test call for this compound, please: "O=C(OCc1ncc(-c2ccc(C(F)(F)F)cc2)c(NC2CCCCCC2)n1)c1c(F)c(F)c(F)c(F)c1F"
No

What did this assay record as the result for "COc1cccc(NC(=O)c2sc3nc4c(cc3c2N)C(=O)CCC4)c1" ?
Yes

Give the logged outcome of this assay for the following compound: Cc1cc(CC(C)CC(C)(C)C)n(O)c(=O)c1 (centres undefined) (tested in a mixture with another compound)
Yes
